Parameter GI50: see the listing below.
test system: MDA-N; assay: NCI tumour cell line growth inhibition, 48 h
Active and inactive are the calls of the source. Rule as the data show it: active = GI50 up to about 1.1 µM and inactive = higher.
ENDPOINT NAME: GI50

[
  {
    "COMPOUND": "CCOC1NC(=O)Oc2cc3ccccc3cc21 (configuration not stated)",
    "REPORTED MEASUREMENT": "> 100 µM (inactive)"
  },
  {
    "COMPOUND": "O=C1OC2C=CCC1C2 (configuration not stated)",
    "REPORTED MEASUREMENT": "> 100 µM (inactive)"
  },
  {
    "COMPOUND": "C=C1C(=O)OC2CC3(C)CCCC(C)C3=CC12 (configuration not stated)",
    "REPORTED MEASUREMENT": "3.18 µM (inactive)"
  },
  {
    "COMPOUND": "N#Cc1nc2cc(Cl)ccc2nc1N1CCN(c2ccc([N+](=O)[O-])cc2)CC1",
    "REPORTED MEASUREMENT": "> 100 µM (inactive)"
  },
  {
    "COMPOUND": "O=C1CCCCC/C1=C\\c1cccc(F)c1",
    "REPORTED MEASUREMENT": "62.5 µM (inactive)"
  },
  {
    "COMPOUND": "Cc1nnc(Nc2ccc(Cl)cc2)o1",
    "REPORTED MEASUREMENT": "> 10 µM (inactive)"
  },
  {
    "COMPOUND": "CC(N/N=C(\\S)N1CCN(c2ccccn2)CC1)c1cccc[n+]1[O-] (configuration not stated)",
    "REPORTED MEASUREMENT": "18.4 µM (inactive)"
  }
]

Attribution: ChEMBL document CHEMBL1201862
